- TARGET SYSTEM: the molecule itself
- ASSAY PROCEDURE: AUC, self-association, monomer/dimer/tetramer model, dimer term, 25 C; dimer term of the monomer/dimer/tetramer model, 25 C
No end group written: not given here.
REPORTED METRIC: pKd
Scale: pKd equals -log10([C]), with [C] in mol/L.

Consider GPSQPTAPGDDASPEDLIRFYDNLQQYLNVVTRHRY-NH2 (Synthetic aPP variant with the proline switch; entries are for its self-association (monomer/dimer/tetramer)) [aPP^Y7AP13SV14P] . Its measured pKd is 3.28

The measured values listed here are drawn from patent US20100273722A1.
